- protocol: chemical genetic growth profiling, strain panel (AID 1159580);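 further: tested at 20 µM; growth read once vehicle control cultures reached saturation at 30 °C; 1 = growth at the plate median or of vehicle wells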
- experimental.context: S. cerevisiae deletion strains, growth OD, locus YNL307C, strain MCK1
Screen size: about 5,500 compounds; about 2,000 (36%) were called active. Roughly 18% stayed inconclusive and do not appear here. No stated cut-off is given here; in the data, active means normalized growth mostly below about 0.91 (no sharp cut-off); inconclusive means no clear call, values can overlap the other calls; inactive means mostly above about 0.92. This is one part of the list.
Permitted responses: 1.0 = active, 0.0 = inactive

[
  {
    "molecule": "Cc1c(NC(C)C)c(=O)n(-c2ccccc2)n1C",
    "label.class": 0.0
  }
]

Could you now look at the following molecule, please?
Problem: Field: outcome | Entry: `Cn1c(=O)c2c(ncn2CCO)n(C)c1=O`
Solution: 0.0

###

// reported normalized growth for each item listed
- protocol: chemical genetic growth profiling, strain panel (AID 1159580);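 further: tested at 20 µM; growth read once vehicle control cultures reached saturation at 30 °C; 1 = growth at the plate median or of vehicle wells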
- experimental.context: S. cerevisiae deletion strains, growth OD, locus YPR025C, strain CCL1, stronger effect = lower value
Out of some 5,500 compounds screened, about 2,000 (36%) were called active. Roughly 18% stayed inconclusive and do not appear here. The list shows a part of the results.
// response body must contain only the number

// known answers, use as guide
[
  {
    "compound": "Cc1cc(N=Cc2cc(Cl)cc(Cl)c2O)no1",
    "normalized growth": 0.969
  },
  {
    "compound": "Cn1cc(Br)c(-c2cccc(NS(=O)(=O)c3ccc(Cl)cc3)c2)n1",
    "normalized growth": 0.981
  },
  {
    "compound": "S=C(NCc1cccs1)Nc1cc(Cl)cc(Cl)c1",
    "normalized growth": 0.949
  }
]

Problem: What value of normalized growth has been reported for the following compound? CC1SC(c2cccnc2)N(c2ccc(Cl)cc2)C1=O (configuration not stated)
Solution: 0.961

Problem: What value of normalized growth has been reported for the following compound? `O=[N+]([O-])c1cc(C(F)(F)F)ccc1Sc1n[nH]c(-c2cc(Cl)cc(Cl)c2)n1`
Solution: 0.952

Problem: What value of normalized growth has been reported for the following compound? `COc1ccc(OC)c2nc3c(nc12)C(=O)c1ccccc1-3`
Solution: 0.979

Problem: What value of normalized growth has been reported for the following compound? `O=C(NCc1ccc2c(c1)OCO2)c1cc2ccccc2s1`
Solution: 0.863

Problem: What value of normalized growth has been reported for the following compound? `O=[N+]([O-])c1ccc(Sc2ccccc2)c([N+](=O)[O-])c1`
Solution: 0.893

Problem: What value of normalized growth has been reported for the following compound? `O=[N+]([O-])c1ccc(NCc2ccc(Cl)c(Cl)c2)nc1`
Solution: 0.93

Problem: What value of normalized growth has been reported for the following compound? `O=C1c2ccccc2C(=O)c2sccc21`
Solution: 0.705
